Reference source: ChEMBL document CHEMBL1961873

test.system: Mitogen-activated protein kinase 11 (Homo sapiens);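 note: values are mean percent inhibition of p38beta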
protocol.conditions: at 1 µM
reported.property: inhibition (%)
Record the value in %, omitting the unit from your answer.

Exam item: I am curious: what inhibition value has been reported for `FC(F)(F)CNc1nccc(-c2cnn3ncccc23)n1` ?
Marked response: 6.08

Exam item: I am curious: what inhibition value has been reported for `Cc1cc(O)cc(C)c1/C=C/c1cncc(C(=O)OC(C)(C)C)c1` ?
Marked response: 5.95

Exam item: I am curious: what inhibition value has been reported for `N#Cc1cccc(Nc2ncc(-c3ccccc3)o2)c1` ?
Marked response: 5.93

---

test.system: Serine/threonine-protein kinase Nek9 (Homo sapiens) (UniProt Q8TD19);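 note: each value is a mean percent inhibition of NEK9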
Sequence (Q8TD19 whole entry): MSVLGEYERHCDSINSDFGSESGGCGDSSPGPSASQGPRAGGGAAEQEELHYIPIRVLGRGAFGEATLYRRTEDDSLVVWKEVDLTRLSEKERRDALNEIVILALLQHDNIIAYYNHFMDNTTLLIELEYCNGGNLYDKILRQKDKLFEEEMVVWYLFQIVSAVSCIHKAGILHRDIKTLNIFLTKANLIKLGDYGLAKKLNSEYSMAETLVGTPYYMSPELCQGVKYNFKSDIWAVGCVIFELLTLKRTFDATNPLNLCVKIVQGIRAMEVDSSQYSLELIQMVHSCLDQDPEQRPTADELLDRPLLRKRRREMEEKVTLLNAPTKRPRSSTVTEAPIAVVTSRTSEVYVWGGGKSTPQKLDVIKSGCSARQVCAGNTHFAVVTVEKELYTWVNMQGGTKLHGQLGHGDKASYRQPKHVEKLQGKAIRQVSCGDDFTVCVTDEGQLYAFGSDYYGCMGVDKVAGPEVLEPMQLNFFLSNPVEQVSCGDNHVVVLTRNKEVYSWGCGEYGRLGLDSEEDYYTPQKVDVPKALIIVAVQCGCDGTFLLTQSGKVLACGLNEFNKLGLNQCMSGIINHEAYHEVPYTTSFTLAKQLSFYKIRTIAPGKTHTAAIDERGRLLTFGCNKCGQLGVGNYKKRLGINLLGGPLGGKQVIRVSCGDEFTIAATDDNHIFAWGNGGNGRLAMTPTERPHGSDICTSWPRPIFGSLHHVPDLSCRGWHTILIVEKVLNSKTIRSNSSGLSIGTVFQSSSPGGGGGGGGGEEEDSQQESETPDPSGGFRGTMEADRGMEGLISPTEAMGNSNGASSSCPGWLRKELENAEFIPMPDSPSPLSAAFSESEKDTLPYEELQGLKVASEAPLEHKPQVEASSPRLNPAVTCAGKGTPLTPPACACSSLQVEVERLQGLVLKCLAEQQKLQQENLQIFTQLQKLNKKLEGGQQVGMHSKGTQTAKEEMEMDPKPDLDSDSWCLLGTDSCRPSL
protocol.conditions: at 1 µM
reported.property: inhibition (%)
Record the value in %, omitting the unit from your answer.

Exam item: I am curious: what inhibition value has been reported for `CS(=O)(=O)CCNCc1ccoc1-c1ccc2ncnc(Nc3ccc(OCc4ccccc4)cc3)c2c1` ?
Marked response: 1.8

Exam item: I am curious: what inhibition value has been reported for `CCS(=O)(=O)c1ccc(OC)c(Nc2ncc(-c3cccc(F)c3)o2)c1` ?
Marked response: 16.1

Exam item: I am curious: what inhibition value has been reported for CC1=C(C(=O)Nc2ccc3[nH]ncc3c2)C(c2ccc(F)cc2)N=C(c2ccc(C(F)(F)F)nc2)N1 (stereo unspecified) ?
Marked response: -1.51

Exam item: I am curious: what inhibition value has been reported for `Cc1c2ccc(N(C)c3ccnc(Nc4cccc(S(N)(=O)=O)c4)n3)cc2nn1C` ?
Marked response: 6.19

Exam item: I am curious: what inhibition value has been reported for `COc1ccccc1-c1cc(/C=C2\C(=O)Nc3ncc(Br)cc32)cc(Br)c1O` ?
Marked response: 3.53

Exam item: I am curious: what inhibition value has been reported for `COc1cc2c(cc1Nc1nc(Nc3cccc(F)c3C(N)=O)c3cc[nH]c3n1)N(C(=O)CN1CCN(C(C)C)CC1)CC2` ?
Marked response: 6.33

Exam item: I am curious: what inhibition value has been reported for `CC1(C)CC(n2cnc(-c3ccc(F)cc3)c2-c2ccnc(N)n2)CC(C)(C)N1` ?
Marked response: 2.47

Exam item: I am curious: what inhibition value has been reported for `Fc1ccc(Nc2nccc(-c3c(-c4ccc(C(F)(F)F)cc4)nn4ncccc34)n2)cc1F` ?
Marked response: 1.67

Exam item: I am curious: what inhibition value has been reported for `CS(=O)(=O)Nc1ccc(-c2cc(-c3ccccc3)cc(C(N)=O)c2N)cc1` ?
Marked response: 1.82

Exam item: I am curious: what inhibition value has been reported for `CN1CCC(n2cnc(-c3ccc(F)cc3)c2-c2ccnc(NCCO)n2)CC1` ?
Marked response: 8.58

Exam item: I am curious: what inhibition value has been reported for `CCCNc1cccc(-n2ncc3c(N/N=C/c4ccncc4)ncnc32)c1` ?
Marked response: 0.45

Exam item: I am curious: what inhibition value has been reported for `OCCCNc1nccc(-c2c(-c3ccc(F)cc3)nn3cc(C(F)(F)F)ccc23)n1` ?
Marked response: 0.58

Exam item: I am curious: what inhibition value has been reported for `CNC(=O)c1sc(-n2cnc3cc(OC)c(OC)cc32)cc1OCc1ccccc1C(F)(F)F` ?
Marked response: 9.14

Exam item: I am curious: what inhibition value has been reported for `NS(=O)(=O)c1ccc(N/N=C2\C(=O)Nc3ccc(C(=O)NCc4ccncc4)cc32)cc1` ?
Marked response: 9.05

Exam item: I am curious: what inhibition value has been reported for `N#Cc1ccc2c(-c3ccnc(NC4CC4)n3)c(-c3ccc(F)cc3)nn2c1` ?
Marked response: 4.02

Exam item: I am curious: what inhibition value has been reported for `CC(C)c1ccc(-c2cc(-c3c[nH]nc3-c3ccccn3)ccn2)cc1` ?
Marked response: 2.93
